So I've got a bunch of compounds here, and I need their inhibition values.
tested_on: Single-strand selective monofunctional uracil DNA glycosylase (Homo sapiens)
setup_conditions: Compound Concentration 10.0 uM, Hit No
Description: Inhibition of SMUG1 by quantifying inhibition of SMUG1-mediated cleavage and dissociation of quenched duplex DNA oligonucleotides, measured as fluorescence at 594 nm. To generate a functional strand incision and increase turn-over this assay is coupled to APE1.
I'd appreciate it if you wrote the number followed by its unit.

Sample CN(C(=O)Cc1ccc(Cl)c(Cl)c1)C(CN1CCCC1)c1cccc(OCC(=O)O)c1 (stereo not given) — what was its inhibition?
-2.65%

Sample Cc1[nH]cnc1CN1CCc2c(c3ccccc3n2C)C1=O — what was its inhibition?
3.41%

Sample CC(C)(C)c1cc(C(C)(C)C)c(NC(=O)c2c[nH]c3ccccc3c2=O)cc1O — what was its inhibition?
6.2%

Sample O=C(NCCCC1CCCCC1)c1ccc(CNC(=O)c2cnn(-c3ccccc3)c2C(F)(F)F)cc1 — what was its inhibition?
6.97%

Sample CCOC(=O)c1cnn(-c2ccc(NC(=O)C(Cl)=C(Cl)Cl)cc2)c1C(F)(F)F — what was its inhibition?
15%

Sample O=C(c1cc(C2CC2)on1)N(C1CCCCC1)C1CCCCC1 — what was its inhibition?
-5.04%

Sample CCO[C@H](COc1ccc(C(F)(F)F)cc1)CSc1ccc(OCC(=O)O)c(C)c1 — what was its inhibition?
20.8%

Sample CCOC(=O)c1c(C)[nH]c2ccc3c(c12)CN1CCc2cc(OC)ccc2C1O3 (stereo not given) — what was its inhibition?
8.69%

Sample NC1(c2ccc(-c3nc4ccn5c(=O)[nH]nc5c4cc3-c3ccccc3)cc2)CCC1 — what was its inhibition?
29.1%

Sample N#Cc1cccc(-c2nc(-c3cccnc3)no2)c1 — what was its inhibition?
-8.21%

====

So I've got a bunch of molecules here, and I need their inhibition values.
tested_on: Endonuclease 8-like 1 (Homo sapiens)
setup_conditions: Compound Concentration 1.0 uM, Hit No
Description: Inhibition of NEIL1 by quantifying inhibition of NEIL1-mediated cleavage and dissociation of quenched duplex DNA oligonucleotides, measured as fluorescence at 594 nm.
Report as a plain number; the unit % is understood.

Sample Cn1cc(Cl)c2c(Oc3c(F)cc(Nc4cc(Cl)nc(N)n4)cc3F)ccnc21 — what was its inhibition?
-7.79

Sample COc1c(OCCCN2CCOCC2)ccc2c1N=C(NC(=O)c1cnc(N)nc1)N1CCN=C21 — what was its inhibition?
-8.98

Sample O=S(=O)(NC1CCC(c2cc(F)ccc2F)(S(=O)(=O)c2ccc(Cl)cc2)CC1)C(F)(F)F (stereo not given) — what was its inhibition?
-7.56

Sample CN1CCN(c2ccc(OC(F)(F)F)c(Nc3ncc4c(n3)-c3c(c(C(N)=O)nn3CCO)CC4)c2)CC1 — what was its inhibition?
1.33

Sample COc1cc2ncn(-c3cc(OCc4ccccc4C(F)(F)F)c(C(N)=O)s3)c2cc1OC — what was its inhibition?
-7

Sample Cc1cc(C)c(-n2ccn3nc(-c4cccnc4)cc23)cc1NC(=O)c1cc(C#N)cc(S(F)(F)(F)(F)F)c1 — what was its inhibition?
-7.27

Sample COc1cccc(-c2nccc3c2CN(c2ccccc2)C3=O)c1 — what was its inhibition?
-3.77

Sample CC(=O)c1c(C)c2cnc(Nc3ccc(N4CCNCC4)cn3)nc2n(C2CCCC2)c1=O — what was its inhibition?
8.59

Sample C[C@@H]1CCNC(=O)c2cc3ccc(C(=O)Nc4nc5ccccc5n4CCCN(C)C)cc3n21 — what was its inhibition?
3.44

Sample Cn1cc(C2=C(c3cn(C4CCN(Cc5ccccn5)CC4)c4ccccc34)C(=O)NC2=O)c2ccccc21 — what was its inhibition?
-7.52

Sample O[C@]1(C(F)(F)F)CCCC[C@H]1Nc1ccc(F)cc1 — what was its inhibition?
3.35

Sample CCOC(=O)c1cc2cc(-c3cc(C(=O)NCc4ccc(C(=O)O)cc4)nn3C)ccc2[nH]1 — what was its inhibition?
-4.68

Sample O=C(Cc1ccccc1)Nc1nnc(N2C[C@H]3C[C@@H]2CN3c2cccnn2)s1 — what was its inhibition?
2.13

Sample N[C@@H]1CCCN(c2c(/C=C3\SC(=O)NC3=O)cccc2-c2ccccc2)C1 — what was its inhibition?
-5.54

Sample Cc1n[nH]c2ncc(C(=O)N3CCC[C@H]3c3ccc(Cl)cc3)cc12 — what was its inhibition?
-3.69

Sample CNC(=O)Nc1ccc2c(c1)[C@@]1(CC2)OC(=O)N(CC(=O)N(Cc2ccc(F)cc2)[C@@H](C)C(F)(F)F)C1=O — what was its inhibition?
-6.35

Sample CN1C(=O)[C@@H](N2CCc3c(nn(Cc4ccccc4)c3Br)C2=O)COc2ccccc21 — what was its inhibition?
-6.27

Sample O=C(NOCC1CC1)c1ccc(F)c(F)c1Nc1ccc(I)cc1Cl — what was its inhibition?
-9.77

Sample CCc1ccccc1C(=O)Nc1n[nH]c2c(C)c(F)c(C3C(C#N)=C(C)N(C)C(C)=C3C#N)cc12 — what was its inhibition?
0.0055

Sample NC1(c2ccc(-c3nc4c(O)ccnn4c3-c3ccccc3)cc2)CCC1 — what was its inhibition?
-7.26

Sample CC(=O)Nc1cccc(-n2c(=O)n(C3CC3)c(=O)c3c(Nc4ccc(I)cc4F)n(C)c(=O)c(C)c32)c1 — what was its inhibition?
2.25

Sample OCCn1cc(-c2ccc3c(c2)CCC3=NO)c(-c2ccncc2)n1 — what was its inhibition?
0.138

Sample CCCOc1ccc([C@H]2[C@H](C(=O)O)[C@@H](c3ccc4c(c3)OCO4)CN2CC(=O)Nc2c(CC)cccc2CC)cc1 — what was its inhibition?
2.13

Sample Cc1c(Oc2ccc(F)cc2)c(OC(C)C)nn1-c1ccc(C2CC2)cn1 — what was its inhibition?
-5.44

Sample N#Cc1cnc(Nc2cc(NC[C@H]3CNCCO3)c(C(F)(F)F)cn2)cn1 — what was its inhibition?
-5.15

====

tested_on: Endonuclease III-like protein 1 (Homo sapiens) (UniProt P78549)
Sequence (P78549 whole entry): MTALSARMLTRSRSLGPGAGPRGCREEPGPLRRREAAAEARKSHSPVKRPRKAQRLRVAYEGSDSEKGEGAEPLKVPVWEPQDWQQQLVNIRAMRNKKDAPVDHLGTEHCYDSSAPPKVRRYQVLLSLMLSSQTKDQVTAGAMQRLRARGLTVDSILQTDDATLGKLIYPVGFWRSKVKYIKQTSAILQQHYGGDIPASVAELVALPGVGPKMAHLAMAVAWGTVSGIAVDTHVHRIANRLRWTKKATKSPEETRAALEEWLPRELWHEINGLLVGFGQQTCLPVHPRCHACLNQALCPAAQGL
setup_conditions: Compound Concentration 10.0 uM, Hit No
Description: Inhibition of NTHL1 by quantifying inhibition of NTHL1-mediated cleavage and dissociation of quenched duplex DNA oligonucleotides, measured as fluorescence at 594 nm.
So I've got a bunch of compounds here, and I need their inhibition values.

Sample CC(C)C(=O)N1CCC(c2cn(C)c3ncc(NC(=O)c4cccc(C#N)c4)c(C(F)(F)F)c23)CC1 — what was its inhibition?
9.89%

Sample Fc1cccc(/C=N/N=C/c2cccc(F)c2)c1 — what was its inhibition?
15.4%

Sample O=c1nc(-c2ccccn2)sc2ccccc12 — what was its inhibition?
2%

Sample COc1ccc2c(O[C@@H]3C[C@H]4C(=O)N[C@]5(C(=O)O)CC5/C=C\CCCCC[C@H](NC(=O)OC5CCCC5)C(=O)N4C3)cc(-c3csc(NC(=O)C(C)C)n3)nc2c1C (some centres undefined) — what was its inhibition?
6.6%

Sample COc1ccccc1C(=O)Nc1cccc(NC(=O)c2cccc(C)c2)c1 — what was its inhibition?
15.4%

Sample Cn1c(C2(NC(=O)c3ccc(NCC4CCCCC4)nc3)CCC2)nc2ccc(/C=C/C(=O)O)cc21 — what was its inhibition?
3.97%

Sample FC(F)(F)c1ccc(Nc2ncnc3cc(-c4ncccc4C(F)(F)F)ccc23)cc1 — what was its inhibition?
-4.39%

Sample COc1ccccc1-c1cc(Nc2cccc(CS(N)(=O)=O)c2)ncn1 — what was its inhibition?
7.06%

Sample Cc1c(NC(=O)COc2ccc(Cl)cc2C(=O)c2cc(F)cc(C(F)(F)F)c2)ccc(C(=O)O)c1F — what was its inhibition?
-8.52%

Sample CCN(c1ccccc1)c1cc(NC)[n+](C)c(C)n1 — what was its inhibition?
30.3%

Sample CCOC(=O)N[C@@H]1CC[C@@H]2[C@@H](C1)C[C@H]1C(=O)O[C@H](C)[C@H]1[C@H]2/C=C/c1ccc(-c2cccc(F)c2)cn1 — what was its inhibition?
2.66%

Sample Cc1cc(OCC(=O)O)cc(C)c1Cc1ccc(O)c(C(C)C)c1 — what was its inhibition?
7.26%

Sample CCOCCn1cc(C(=O)Nc2ccc(-n3nc(-c4cccnc4)cc3C(F)(F)F)cn2)ccc1=O — what was its inhibition?
0.685%

Sample COc1cc(Nc2nc(C)cc(-c3cnn4nc(OC)ccc34)n2)cc(C(F)(F)F)c1 — what was its inhibition?
8.46%

Sample CC1(C)SSC(C)(C)[C@@H](NC(=O)[C@@H](N)Cc2ccc(O)cc2)C(=O)NCC(=O)N[C@@H](Cc2ccccc2)C(=O)N[C@H]1C(=O)O — what was its inhibition?
17.3%

Sample Cc1cccc([C@H]2CC[C@@H](N3CCN(c4cccnc4)CC3)CC2)c1 (mixture of isomers) — what was its inhibition?
-0.258%

Sample CCOC(=O)C1=C[C@]2(CC)CCCN3CCc4c(n1c1ccccc41)[C@@H]32 — what was its inhibition?
18.7%

Sample CC(F)(F)CN1CCOc2c(nn(-c3ccccc3Cl)c2-c2ccc(Cl)cc2)C1=O — what was its inhibition?
14.4%

Sample CN(C)C(=O)c1cc2cnc(Nc3ccc(N4CCNCC4)cn3)nc2n1C1CCCC1 — what was its inhibition?
-3.4%

====

tested_on: Adenine DNA glycosylase (Homo sapiens) (UniProt Q9UIF7)
Sequence (Q9UIF7 whole entry): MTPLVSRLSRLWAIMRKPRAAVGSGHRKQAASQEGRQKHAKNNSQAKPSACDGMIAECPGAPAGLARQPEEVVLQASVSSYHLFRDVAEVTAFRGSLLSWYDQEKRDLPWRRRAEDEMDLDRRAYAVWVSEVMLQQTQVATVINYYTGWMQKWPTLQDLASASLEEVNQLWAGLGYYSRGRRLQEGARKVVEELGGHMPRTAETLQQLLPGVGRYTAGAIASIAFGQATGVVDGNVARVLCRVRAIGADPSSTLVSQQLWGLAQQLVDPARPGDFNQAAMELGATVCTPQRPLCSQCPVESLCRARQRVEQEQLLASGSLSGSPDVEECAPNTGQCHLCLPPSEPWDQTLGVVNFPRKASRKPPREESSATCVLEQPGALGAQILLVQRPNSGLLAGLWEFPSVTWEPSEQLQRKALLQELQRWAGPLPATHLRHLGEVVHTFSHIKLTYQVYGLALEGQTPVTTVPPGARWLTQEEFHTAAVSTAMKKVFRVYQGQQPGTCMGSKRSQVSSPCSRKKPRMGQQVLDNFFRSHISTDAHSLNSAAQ
setup_conditions: Compound Concentration 10.0 uM, Hit No
Description: Inhibition of MUTYH by quantifying inhibition of MUTYH-mediated cleavage and dissociation of quenched duplex DNA oligonucleotides, measured as fluorescence at 594 nm. To generate a functional strand incision and increase turn-over this assay is coupled to APE1.
So I've got a bunch of compounds here, and I need their inhibition values.
Report as a plain number; the unit % is understood.

Sample C[C@@H](NCCc1ccc(O)cc1)[C@@H](O)c1ccc(O)cc1 (relative stereo) — what was its inhibition?
11.7

Sample COc1ccc(C2(O)OC(=O)C(c3ccc4c(c3)OCO4)=C2Cc2cc(OC)c(OC)c(OC)c2)cc1 (centres undefined) — what was its inhibition?
22.7

Sample CC(C)NCC(O)COc1cccc2[nH]ccc12 (centres undefined) — what was its inhibition?
-5.48

Sample CO[C@@H](C)c1c(Nc2ccc([C@H](N(C)C(=O)C3CCS(=O)(=O)CC3)C(F)(F)F)cc2)cnc2cc(Cl)nn12 — what was its inhibition?
-6.71

Sample CC[C@H](C)C(=O)O[C@H]1C[C@@H](C)C=C2C=C[C@H](C)[C@H](CC[C@@H]3C[C@@H](O)CC(=O)O3)[C@H]21 — what was its inhibition?
12.1

Sample Cc1ccc(-c2cnc([C@@]3(O)CC[C@H](C(=O)O)C(C)(C)C3)s2)cc1Nc1cccc(C(F)(F)F)n1 — what was its inhibition?
13.4

Sample C(#Cc1cccc(CN2CCOCC2)c1)CCN1CCCCC1 — what was its inhibition?
-3.69

Sample COc1cc(Nc2nc(C)cc(-c3cnn4nc(OC)ccc34)n2)cc(C(F)(F)F)c1 — what was its inhibition?
-7.4

Sample CCNC(=O)NS(=O)(=O)c1sc(CC(C)C)cc1-c1ccc(Cn2c(-c3ccccc3)nc(OC)c2C=O)cc1 — what was its inhibition?
90.4

Sample Clc1ccc2nsnc2c1NC1=NCCN1 — what was its inhibition?
-8.81

Sample CCOC(=O)C1Cc2ccccc2CN1C(=O)c1ccc(SC)s1 (centres undefined) — what was its inhibition?
-2.13

Sample COc1nc2ccc([C@@](O)(c3ccccc3)C3CCN(C(C)=O)CC3)cc2c(Cl)c1Cc1ccc(-n2cccn2)cc1 — what was its inhibition?
5.36

Sample NS(=O)(=O)c1cc(NC(=O)Cc2ccccc2)ccc1Oc1cccc(Cl)c1 — what was its inhibition?
-0.214

Sample O=C(O)c1ccc(C(=O)N[C@@H](c2ccc(OC(F)(F)F)c(F)c2)c2ncccc2F)nc1 — what was its inhibition?
7.76

Sample COc1ccc2c(c1)C(C(=O)N(Cc1ccc(N(C)C)cc1)c1ccc(C(C)C)cc1)CCC2 (centres undefined) — what was its inhibition?
34.4

Sample Cc1nccn1CC1CCc2c(c3ccccc3n2C)C1=O (centres undefined) — what was its inhibition?
19

Sample COc1ccc(OC(=O)N(CC(=O)O)Cc2ccc(OCCc3nc(-c4ccccc4)oc3C)cc2)cc1 — what was its inhibition?
29.2

Sample Cc1nnn(-c2ccc(-c3ccc(C4(C(=O)O)CC4)cc3)cc2)c1NC(=O)O[C@H](C)c1ccccc1 — what was its inhibition?
17.2

Sample Cc1nnc2ccc(-c3cccc(C(F)(F)F)c3)nn12 — what was its inhibition?
-2.78

Sample OCCn1cc(-c2cnc3nnn(Cc4ccc5ncccc5c4)c3n2)cn1 — what was its inhibition?
0.369

Sample CCCOc1ccc2[nH]cc(C3=CCNCC3)c2n1 — what was its inhibition?
0.205

Sample O[C@H]1CC[C@H](Nc2ncc3nc(Nc4c(F)cc(F)cc4F)n([C@H]4CCOC4)c3n2)CC1 — what was its inhibition?
1.28

Sample CC1=C(C#N)C(c2ccc3[nH]nc(C)c3c2)C(C#N)=C(C)N1 — what was its inhibition?
18.6

Sample Cc1nc(NC(=O)N2CCC[C@H]2C(N)=O)sc1-c1ccnc(C(C)(C)C(F)(F)F)c1 — what was its inhibition?
6.32

Sample C[C@@H](OC[C@@]1(c2ccccc2)CC[C@]2(CCC(=O)N2)CN1)c1cc(C(F)(F)F)cc(C(F)(F)F)c1 — what was its inhibition?
10.9

Sample O=C(NNS(=O)(=O)c1ccccc1F)c1cc(F)cc(-c2ccccn2)c1 — what was its inhibition?
3.72

Sample Cc1cccc(NC(=O)N[C@@H]2N=C(c3ccccc3)c3ccccc3N(C)C2=O)c1 — what was its inhibition?
10.5

Sample CN(C)c1ncc2cc(-c3ccc(-c4ncccc4F)cc3Cl)c(=O)n(C[C@H]3OC[C@H](N)CO3)c2n1 — what was its inhibition?
13.7

Sample O=C(O)c1cc(F)c2nc(N3[C@@H]4CC[C@H]3C[C@@H](OCc3c(-c5ccccc5OC(F)(F)F)noc3C3CC3)C4)sc2c1 — what was its inhibition?
11.9
